assay: Displacement of [3H]cytisine from neuronal nicotinic acetylcholine receptor in rat brain membrane; format: cell membranes
reported_endpoint: log10(Ki) (log10 of the value in nM)
Please note: log10 values; quantity Ki; unit nM.

Observe how each entry below is paired with its result.
(Q) Report log10(Ki) for N=C(NO)c1cncc(N2C[C@H]3CNC[C@H]32)c1 please.
(A) 1.46

(Q) Value lookup for log10(Ki); key = N#Cc1cc(N2C[C@@H]3CN[C@@H]3C2)cnc1Br
(A) -0.52

(Q) Query: log10(Ki); subject: Brc1cncc(N2C[C@H]3CN[C@H]3C2)c1
(A) -1.00

(Q) # lookup: log10(Ki) of Cc1ncc(N2C[C@H]3CN[C@H]3C2)cc1C#N
(A) -1.22

(Q) Recorded log10(Ki) for Cc1cc(N2C[C@H]3CN[C@H]3C2)cnc1Cl , please?
(A) -1.40

(Q) Give its log10(Ki) value. Item: N#Cc1cc(N2C[C@H]3CNC[C@H]32)c[n+]([O-])c1
(A) 1.27

(Q) Any idea what its log10(Ki) is? The compound is Clc1cncc(N2C[C@H]3CNC[C@H]32)c1
(A) 0.48

(Q) Please give the measured log10(Ki) for this compound: COc1cc(N2C[C@H]3CNC[C@H]32)cnc1Br
(A) -0.70

(Q) For the compound N#Cc1cncc(N2C[C@H]3CN[C@H]3C2)c1 , what log10(Ki) is on record?
(A) -1.00

(Q) What log10(Ki) value was documented for this compound, Brc1cncc(N2C[C@H]3CNC[C@H]32)c1 ?
(A) 0.49

Next:
(Q) Can you share its log10(Ki)? I mean this compound: COc1cncc(N2C[C@H]3CNC[C@H]32)c1
(A) -0.10

(Q) Query: log10(Ki); subject: Brc1cc(N2C[C@H]3CNC[C@H]32)cnc1Br
(A) -0.30

(Q) Give the measured log10(Ki) of Brc1cncc(N2C[C@@H]3CNC[C@@H]32)c1 .
(A) 0.18

(Q) Requested field: log10(Ki). Item: Clc1cc(N2C[C@H]3CN[C@H]3C2)cnc1Cl
(A) -1.40

(Q) Report log10(Ki) for Cc1ncc(N2C[C@@H]3CNC[C@@H]32)cc1C#N please.
(A) -0.15

(Q) Would you kindly share the measured log10(Ki) for Clc1ccc(N2C[C@@H]3CNC[C@@H]32)cn1 ?
(A) 0.11

(Q) Can you share its log10(Ki)? I mean this compound: Clc1cc(N2C[C@@H]3CNC[C@@H]32)cnc1Cl
(A) 0.08

(Q) Fill blank: measured log10(Ki) of the compound N#Cc1cncc(N2C[C@@H]3CN[C@@H]3C2)c1 is ____.
(A) 0.23

(Q) I would be grateful if you could share the reported log10(Ki) for N#Cc1cc(N2C[C@H]3CNC[C@H]32)cnc1Br .
(A) -0.52

(Q) GET /values?readout=log10(Ki)&item= c1cncc(N2C[C@H]3CNC[C@H]32)c1
(A) 0.11

(Q) Looking for the measured log10(Ki) of COc1cncc(N2C[C@@H]3CN[C@@H]3C2)c1 , can you help?
(A) 0.48

(Q) If you can, please state the reported log10(Ki) value of Cc1cncc(N2C[C@@H]3CN[C@@H]3C2)c1 .
(A) 0.40

(Q) Which log10(Ki) is reported for this compound? Brc1cc(N2C[C@@H]3CN[C@@H]3C2)cnc1Br
(A) -0.52
